Reference for the values: PubChem BioAssay AID1220

target: Mannose-6-phosphate isomerase (Homo sapiens) (UniProt P34949); assay: MPI inhibition at elevated mannose 6-phosphate – biochemical, fluorescence intensity, high mannose 6-phosphate, primary screen (AID 1220); conditions: recombinant PMI enzyme, coupled fluorescence intensity; at 20 µM; hits give high values
Sequence (P34949 whole entry, looked up): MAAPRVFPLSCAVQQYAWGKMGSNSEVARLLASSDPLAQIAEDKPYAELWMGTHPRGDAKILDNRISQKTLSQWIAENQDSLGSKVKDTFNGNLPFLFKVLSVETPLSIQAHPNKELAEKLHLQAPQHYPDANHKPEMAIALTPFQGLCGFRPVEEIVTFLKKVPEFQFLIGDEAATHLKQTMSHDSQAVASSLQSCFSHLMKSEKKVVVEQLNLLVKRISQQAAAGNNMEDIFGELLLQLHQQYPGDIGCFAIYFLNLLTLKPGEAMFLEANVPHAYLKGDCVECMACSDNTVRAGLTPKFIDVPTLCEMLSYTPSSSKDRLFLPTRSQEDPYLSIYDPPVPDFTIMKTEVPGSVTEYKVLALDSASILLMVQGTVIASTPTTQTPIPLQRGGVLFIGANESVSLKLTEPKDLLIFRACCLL
The whole screen tested about 190,000 compounds, of which about 1,300 (0.68%) were called active. Only a selection was taken, and actives are over-represented in it overall.
Measured inhibition, listed per entry for reference.

| molecule | experimental-target | inhibition |
| --- | --- | --- |
| C/C(CC(=O)Nc1cccc(Cl)c1Cl)=N\NC(=O)c1ccccc1N | Mannose-6-phosphate isomerase (Homo sapiens) (UniProt P34949) | 3.3% (inactive) |
| O=C(/C(=N/N=C/c1ccc(O)c(O)c1O)c1ccccc1)c1ccccc1 | Mannose-6-phosphate isomerase (Homo sapiens) (UniProt P34949) | 30.5% (inactive) |
| C/C(=C\C=C(C#N)C#N)c1cc(C#N)c(N)o1 | Mannose-6-phosphate isomerase (Homo sapiens) (UniProt P34949) | 70.9% (active) |
| CCN1C(=C(C#N)C#N)C=Cc2cc(C)ccc21 | Mannose-6-phosphate isomerase (Homo sapiens) (UniProt P34949) | 5.3% (inactive) |
| CCOC1(NC(=O)c2ccccc2)C(C)=CC(=O)C=C1C | Mannose-6-phosphate isomerase (Homo sapiens) (UniProt P34949) | 49.2% (inactive) |
| CCOC(=O)Cc1csc(SCn2nnc3ccccc3c2=O)n1 | Mannose-6-phosphate isomerase (Homo sapiens) (UniProt P34949) | -0.1% (inactive) |
| O=C(CN1C(=O)C2C3C=CC(C3)C2C1=O)NCc1ccco1 (configuration not stated) | Mannose-6-phosphate isomerase (Homo sapiens) (UniProt P34949) | 57% (active) |
| Cc1nc(NC(=O)CSc2nnnn2Cc2ccccc2)sc1C | Mannose-6-phosphate isomerase (Homo sapiens) (UniProt P34949) | 5.5% (inactive) |
| C=CCNc1cc(N2CCCC2)ccc1[N+](=O)[O-] | Mannose-6-phosphate isomerase (Homo sapiens) (UniProt P34949) | 51.8% (active) |
| COc1ccc(C)cc1NC(=O)CN(C)S(=O)(=O)c1cccs1 | Mannose-6-phosphate isomerase (Homo sapiens) (UniProt P34949) | 1.9% (inactive) |
| CC1(C)CC(=O)C2=C(C1)Nc1cc(C(=O)c3ccccc3)ccc1NC2c1ccccn1 (configuration not stated) | Mannose-6-phosphate isomerase (Homo sapiens) (UniProt P34949) | -4.3% (inactive) |
| CCCc1cc(=O)oc2cc(C)cc(O)c12 | Mannose-6-phosphate isomerase (Homo sapiens) (UniProt P34949) | 2.5% (inactive) |
| COC1(NC(=O)c2ccccc2)C(C)=CC(=O)C=C1C | Mannose-6-phosphate isomerase (Homo sapiens) (UniProt P34949) | 6.7% (inactive) |
| COC(=O)c1cn(CC(=O)NC2CCCCCC2)c2ccccc12 | Mannose-6-phosphate isomerase (Homo sapiens) (UniProt P34949) | 4.4% (inactive) |
| CCn1c(SCC(=O)Nc2cc(OC)c(OC)c(OC)c2)nnc1-c1cccs1 | Mannose-6-phosphate isomerase (Homo sapiens) (UniProt P34949) | 0.1% (inactive) |
| COC(=O)c1ccc2c(c1)NC1=C(C(=O)CC(C)(C)C1)C(c1ccncc1)N2 (configuration not stated) | Mannose-6-phosphate isomerase (Homo sapiens) (UniProt P34949) | 61.3% (active) |
| CC1CC(C)CN(CC(=O)c2cccs2)C1 (configuration not stated) | Mannose-6-phosphate isomerase (Homo sapiens) (UniProt P34949) | -20.3% (inactive) |
| CCC(=O)N1CCc2cc(S(=O)(=O)NC(Cc3ccccc3)C(=O)NC3CCCCC3)ccc21 (configuration not stated) | Mannose-6-phosphate isomerase (Homo sapiens) (UniProt P34949) | -11.2% (inactive) |
| O=C(CN1C(=O)C2C3C=CC(C4CC34)C2C1=O)NCc1ccco1 (configuration not stated) | Mannose-6-phosphate isomerase (Homo sapiens) (UniProt P34949) | 13% (inactive) |
| O=C(CN1CCC(C(O)(c2ccccc2)c2ccccc2)CC1)Nc1ccccc1 | Mannose-6-phosphate isomerase (Homo sapiens) (UniProt P34949) | -1.7% (inactive) |
| O=C(NCc1ccco1)C(=O)NCC1OCCCN1S(=O)(=O)c1ccccc1 (configuration not stated) | Mannose-6-phosphate isomerase (Homo sapiens) (UniProt P34949) | -6.2% (inactive) |
| COCCN(CCOC)Cc1c(O)ccc2c3c(c(=O)oc12)CCC3 | Mannose-6-phosphate isomerase (Homo sapiens) (UniProt P34949) | 50.9% (active) |
| Cc1ccc(/C=C/C(=O)NCc2cccs2)cc1 | Mannose-6-phosphate isomerase (Homo sapiens) (UniProt P34949) | -6.3% (inactive) |
| C/C(CC(=O)Nc1cccc(Cl)c1Cl)=N\NC(=O)c1ccccc1C | Mannose-6-phosphate isomerase (Homo sapiens) (UniProt P34949) | 2.3% (inactive) |
| CC(O)CNCc1ccc(-c2ccccc2)cc1 (configuration not stated) | Mannose-6-phosphate isomerase (Homo sapiens) (UniProt P34949) | 0.1% (inactive) |
| c1ccc(COC2CCCN(Cc3nc(-c4cccs4)no3)C2)nc1 (configuration not stated) | Mannose-6-phosphate isomerase (Homo sapiens) (UniProt P34949) | 13.3% (inactive) |
| O=[N+]([O-])c1ccc(N2CCOCC2)cc1N1CCCCC1 | Mannose-6-phosphate isomerase (Homo sapiens) (UniProt P34949) | -3.2% (inactive) |
| Cc1ccc(-n2c(-c3ccncc3)n[nH]c2=S)c(C)c1 | Mannose-6-phosphate isomerase (Homo sapiens) (UniProt P34949) | 3.7% (inactive) |
| O=C1CN(C(=O)c2ccccc2)c2ccccc2N1 | Mannose-6-phosphate isomerase (Homo sapiens) (UniProt P34949) | 6.5% (inactive) |
| CCOC(=O)C1CCN(c2cc(=O)n(-c3ccccc3Cl)c(=O)[nH]2)CC1 | Mannose-6-phosphate isomerase (Homo sapiens) (UniProt P34949) | -1.4% (inactive) |
| O=C1CN(C(=O)c2cc(Br)c(Br)s2)c2ccccc2N1 | Mannose-6-phosphate isomerase (Homo sapiens) (UniProt P34949) | 61.5% (active) |
| Cc1cccc(C)c1OCC(=O)N/N=C/c1cc2c(cc1[N+](=O)[O-])OCO2 | Mannose-6-phosphate isomerase (Homo sapiens) (UniProt P34949) | -72.5% (inactive) |
| c1ccc(COc2ccc(OCCN3CCCC3)cc2)cc1 | Mannose-6-phosphate isomerase (Homo sapiens) (UniProt P34949) | 16.3% (inactive) |
| CC(C)CN(Cc1c(O)ccc2c3c(c(=O)oc12)CCC3)CC(C)C | Mannose-6-phosphate isomerase (Homo sapiens) (UniProt P34949) | 10% (inactive) |
| CC1(C)CC(=O)C2=C(C1)Nc1ccccc1NC2c1cccnc1 (configuration not stated) | Mannose-6-phosphate isomerase (Homo sapiens) (UniProt P34949) | -11.6% (inactive) |
| CCOC(=O)Cc1csc(NC(=O)c2cc(=O)c3ccccc3o2)n1 | Mannose-6-phosphate isomerase (Homo sapiens) (UniProt P34949) | -6.1% (inactive) |
| Cc1ccc(C)c(N=Cc2cc3c(cc2[N+](=O)[O-])OCO3)c1 | Mannose-6-phosphate isomerase (Homo sapiens) (UniProt P34949) | 41.6% (inactive) |
